Data origin, for the record: paper PMC8041193

experiment: LA concentration in porcine intestinal fluid collected via in vivo ultrafiltration probes, UPLC-MS/MS; conditions: female, Yorkshire cross, pig, intestinal fluid, distal duodenum, po, 1 mg
Ends that are not written are not given here.
reported.endpoint: level at time molar at 3 h (nM)
Dear colleague, please return just the value in nM, with no unit written.

Returns the measured level at time molar at 3 h for the input sequence. Input: GGVLVQPG [LA, Larazotide acetate]
120

---

assay: LA concentration in porcine intestinal fluid collected via in vivo ultrafiltration probes, UPLC-MS/MS; settings: female, Yorkshire cross, pig, intestinal fluid, distal duodenum, po, 1 mg, LA concentration (µM), oral 1 mg LA human clinical formulation, 3h, case number 1, single measurement
Ends that are not written are not given here.
reported.endpoint: level at time molar at 3 h (µM)
Please reply with the bare figure in µM and do not write the unit itself.

Given GGVLVQPG [LA, Larazotide acetate] , state its recorded level at time molar at 3 h.
0.03

---

assay: LA concentration in porcine intestinal fluid collected via in vivo ultrafiltration probes, UPLC-MS/MS; conditions: female, Yorkshire cross, pig, intestinal fluid, proximal jejunum, po, 1 mg, LA concentration (µM), oral 1 mg LA human clinical formulation, 2h, case number 1, single measurement
Ends that are not written are not given here.
reported.endpoint: level at time molar at 2 h (µM)
Lab book: enter the figure in µM, no units written.

Which level at time molar at 2 h is listed for GGVLVQPG [LA, Larazotide acetate] ?
0.13

---

test: LA concentration in porcine intestinal fluid collected via in vivo ultrafiltration probes, UPLC-MS/MS; settings: female, Yorkshire cross, pig, intestinal fluid, distal duodenum, po, 1 mg, LA concentration (µM), oral 1 mg LA human clinical formulation, 1h, case number 1, single measurement
Ends that are not written are not given here.
reported.endpoint: level at time molar at 1 h (µM)
Reply numerically in µM, unit not repeated.

Any idea what its level at time molar at 1 h is? The sequence is GGVLVQPG [LA, Larazotide acetate]
0.32

---

assay: LA concentration in porcine intestinal fluid collected via in vivo ultrafiltration probes, UPLC-MS/MS; conditions: female, Yorkshire cross, pig, intestinal fluid, distal duodenum, po, 1 mg, LA concentration (µM), oral 1 mg LA human clinical formulation, 3h, case number 3, single measurement
Ends that are not written are not given here.
reported.endpoint: level at time molar at 3 h (µM)
The figure you give is taken to be in µM; do not add the unit.

What does the record list as level at time molar at 3 h for GGVLVQPG [LA, Larazotide acetate] ?
0.25

---

assay: LA concentration in porcine intestinal fluid collected via in vivo ultrafiltration probes, UPLC-MS/MS; settings: female, Yorkshire cross, pig, intestinal fluid (proximal jejunum), po, 1 mg
Ends that are not written are not given here.
reported.endpoint: level at time molar at 3 h
Provide the measurement as a number trailed by its unit.

Fill blank: measured level at time molar at 3 h of the sequence GGVLVQPG [LA, Larazotide acetate] is ____.
90 nM

---

assay: LA concentration in porcine intestinal fluid collected via in vivo ultrafiltration probes, UPLC-MS/MS; settings: female, Yorkshire cross, pig, intestinal fluid (proximal jejunum), po, 1 mg
Ends that are not written are not given here.
reported.endpoint: level at time molar at 4 h (nM)
Write it as a number; the unit nM goes unstated.

Form field: reported level at time molar at 4 h of GGVLVQPG [LA, Larazotide acetate]
30

---

experiment: LA concentration in porcine intestinal fluid collected via in vivo ultrafiltration probes, UPLC-MS/MS; settings: female, Yorkshire cross, pig, intestinal fluid, proximal jejunum, po, 1 mg, LA concentration (µM), oral 1 mg LA human clinical formulation, 3h, case number 1, single measurement
Ends that are not written are not given here.
reported.endpoint: level at time molar at 3 h (µM)
Numeric answer only, unit µM assumed.

Which level at time molar at 3 h is reported for this sequence? GGVLVQPG [LA, Larazotide acetate]
0.04

---

test: LA concentration in porcine intestinal fluid collected via in vivo ultrafiltration probes, UPLC-MS/MS; details: female, Yorkshire cross, pig, intestinal fluid, distal duodenum, po, 1 mg
Ends that are not written are not given here.
reported.endpoint: level at time molar at 2 h (nM)
Numbers only; they are read as nM.

Looking for the measured level at time molar at 2 h of GGVLVQPG [LA, Larazotide acetate] , can you help?
270

---

test: LA concentration in porcine intestinal fluid collected via in vivo ultrafiltration probes, UPLC-MS/MS; conditions: female, Yorkshire cross, pig, intestinal fluid (distal duodenum), po, 1 mg
Ends that are not written are not given here.
reported.endpoint: level at time molar at 3 h (nM)
Answer format: numeric, nM implied, no suffix.

What value of level at time molar at 3 h has been reported for the following sequence? GGVLVQPG [LA, Larazotide acetate]
120

---

assay: LA concentration in porcine intestinal fluid collected via in vivo ultrafiltration probes, UPLC-MS/MS; conditions: female, Yorkshire cross, pig, intestinal fluid, proximal jejunum, po, 1 mg
Ends that are not written are not given here.
reported.endpoint: level at time molar at 1 h (nM)
Quick reminder: number only, in nM, skip the unit.

Please look up its level at time molar at 1 h: GGVLVQPG [LA, Larazotide acetate]
1100

---

experiment: LA concentration in porcine intestinal fluid collected via in vivo ultrafiltration probes, UPLC-MS/MS; conditions: female, Yorkshire cross, pig, intestinal fluid, proximal jejunum, po, 1 mg, LA concentration (µM), oral 1 mg LA human clinical formulation, 3h, case number 3, single measurement
Ends that are not written are not given here.
reported.endpoint: level at time molar at 3 h (µM)
// return numeric value only (unit: µM, not printed)

Can you look up the measured level at time molar at 3 h of GGVLVQPG [LA, Larazotide acetate] for me?
0.22

---

test: LA concentration in porcine intestinal fluid collected via in vivo ultrafiltration probes, UPLC-MS/MS; conditions: female, Yorkshire cross, pig, intestinal fluid, distal duodenum, po, 1 mg, LA concentration (µM), oral 1 mg LA human clinical formulation, 1h, case number 3, single measurement
Ends that are not written are not given here.
reported.endpoint: level at time molar at 1 h (µM)
Respond with the bare value in µM.

State the recorded level at time molar at 1 h for this entry: GGVLVQPG [LA, Larazotide acetate]
0.93

---

test: LA concentration in porcine intestinal fluid collected via in vivo ultrafiltration probes, UPLC-MS/MS; conditions: female, Yorkshire cross, pig, intestinal fluid, distal duodenum, po, 1 mg, LA concentration (µM), oral 1 mg LA human clinical formulation, 3h, case number 2, single measurement
Ends that are not written are not given here.
reported.endpoint: level at time molar at 3 h (µM)
Please give a number only; it is taken to be in µM.

Tell me the measured level at time molar at 3 h of GGVLVQPG [LA, Larazotide acetate] , please.
0.09

---

assay: LA concentration in porcine intestinal fluid collected via in vivo ultrafiltration probes, UPLC-MS/MS; settings: female, Yorkshire cross, pig, intestinal fluid, distal duodenum, po, 1 mg
Ends that are not written are not given here.
reported.endpoint: level at time molar at 1 h
# output: numeric value plus its unit

For the sequence shown here, GGVLVQPG [LA, Larazotide acetate] , give the reported level at time molar at 1 h.
740 nM

---

assay: LA concentration in porcine intestinal fluid collected via in vivo ultrafiltration probes, UPLC-MS/MS; settings: female, Yorkshire cross, pig, intestinal fluid, distal duodenum, po, 1 mg, LA concentration (µM), oral 1 mg LA human clinical formulation, 2h, case number 2, single measurement
Ends that are not written are not given here.
reported.endpoint: level at time molar at 2 h (µM)
Numeric answer only, unit µM assumed.

# query: level at time molar at 2 h of entry GGVLVQPG [LA, Larazotide acetate]
0.21

---

assay: LA concentration in porcine intestinal fluid collected via in vivo ultrafiltration probes, UPLC-MS/MS; settings: female, Yorkshire cross, pig, intestinal fluid, proximal jejunum, po, 1 mg, LA concentration (µM), oral 1 mg LA human clinical formulation, 1h, case number 1, single measurement
Ends that are not written are not given here.
reported.endpoint: level at time molar at 1 h (µM)
Form entry: value (µM) — number only.

Record request: level at time molar at 1 h value, item GGVLVQPG [LA, Larazotide acetate]
0.65

---

assay: LA concentration in porcine intestinal fluid collected via in vivo ultrafiltration probes, UPLC-MS/MS; details: female, Yorkshire cross, pig, intestinal fluid, distal duodenum, po, 1 mg, LA concentration (µM), oral 1 mg LA human clinical formulation, 4h, case number 2, single measurement
Ends that are not written are not given here.
reported.endpoint: level at time molar at 4 h
Answers without a unit are incomplete; give the number and then its unit.

Any idea what its level at time molar at 4 h is? The sequence is GGVLVQPG [LA, Larazotide acetate]
0.02 µM

---

assay: LA concentration in porcine intestinal fluid collected via in vivo ultrafiltration probes, UPLC-MS/MS; conditions: female, Yorkshire cross, pig, intestinal fluid, proximal jejunum, po, 1 mg
Ends that are not written are not given here.
reported.endpoint: level at time molar at 4 h (nM)
Provide the reading as a plain figure in nM.

Give the measured level at time molar at 4 h of GGVLVQPG [LA, Larazotide acetate] .
30

---

experiment: LA concentration in porcine intestinal fluid collected via in vivo ultrafiltration probes, UPLC-MS/MS; conditions: female, Yorkshire cross, pig, intestinal fluid, distal duodenum, po, 1 mg, LA concentration (µM), oral 1 mg LA human clinical formulation, 1h, case number 2, single measurement;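 further: pigs aged 6–8 weeks and weighing 15–20 kg, intestinal fluid sampled through surgically implanted ultrafiltration probes whose placement was checked post mortem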
Ends that are not written are not given here.
reported.endpoint: level at time molar at 1 h (µM)
Please give a number only; it is taken to be in µM.

Please look up its level at time molar at 1 h: GGVLVQPG [LA, Larazotide acetate]
0.98
